In this section we review reported Kd values for a set of binders.
Target: platelet-derived growth factor-BB (PDGF-BB) (human) (UniProt P01127)
Sequence (P01127 82-190 limits assumed): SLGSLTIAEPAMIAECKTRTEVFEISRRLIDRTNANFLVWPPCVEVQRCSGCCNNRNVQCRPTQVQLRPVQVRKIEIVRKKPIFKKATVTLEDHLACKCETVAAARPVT
Experiment: peptide binding to PDGF-BB
Kindly answer with a numeric value in nM, unit omitted.

binder	observed
QPSHISKYILRWRPK [peptide 1A (FN634-648) …]	450
WNAPQPSHISKYILRWRPK [FN630-648 …]	340

### Prompt Fill blank: measured Kd of the binder QLISIQQYGHQEVTRFDFTTTSTST [peptide 2 (FN680-704) …] is ____.
### Response 110

### Prompt I am curious: what Kd value has been reported for QPSHISKYILRWRPKNSVGRWKEAT [peptide 1 (FN634-658) …] ?
### Response 250

These entries and their values trace back to patent US8759300.
